Test system: SK-MEL-5 melanoma
Assay: NCI tumour cell line growth inhibition, 48 h
TGI values for the compounds below.

compound	value.type	result
Cc1ccc(C2=CC(=O)OC(C[P+](c3ccccc3)(c3ccccc3)c3ccccc3)(c3ccccc3)O2)cc1 (stereo not drawn)	TGI	29.8 µM
COc1ccc(C(=O)Nc2ccc(O)c(=O)cc2)cc1	TGI	> 100 µM
NC(=O)c1c(NC(=O)c2ccccc2)sc2c1CCC(=O)C2	TGI	3.04 µM
CC1(C)CC(=O)C(C(CC(c2ccccc2)c2cc3c(cc2O)OCO3)C2=C(O)CC(C)(C)CC2=O)=C(O)C1 (stereo not drawn)	TGI	> 10 µM
Cc1ccccc1C(=O)c1cc(O)ccc1O	TGI	> 100 µM

Please give the measured TGI for this compound: O=C(O)CN1CCN2CCCCCN(CC1)CCN(CC(=O)O)CC2
> 100 µM

Please give the measured TGI for this compound: S=c1c2cn[nH]c2nc2scc(-c3ccc(Cl)cc3)n12
> 100 µM

* * *

System: M14 melanoma
Assay: NCI tumour cell line growth inhibition, 48 h
TGI values for the compounds below.

compound	target.or.system	result
N#C/C(=C\c1ccc2ccccc2c1)C(=O)c1ccccc1	M14 melanoma	> 88.4 µM
OC[C@H]1O[C@@H]2O[C@@](COCc3ccccc3)([C@H](OCc3ccccc3)[C@H]2O)[C@@H]1OCc1ccccc1	M14 melanoma	32.9 µM
CSc1cc(-c2cccs2)sc1-c1cc(SC)c(-c2sc(-c3sc(-c4cccs4)cc3SC)cc2SC)s1	M14 melanoma	> 100 µM
Cc1nc(C)c(C(=O)NNC(=O)C[N+](C)(C)C)cc1C(=O)NNC(=O)C[N+](C)(C)C	M14 melanoma	> 100 µM
CCN(CC)CCNc1nc(N)c(C#N)c(C#N)c1C#N	M14 melanoma	> 10 µM
CSc1nc(SC)c2c(C#N)[nH]nc2n1	M14 melanoma	> 100 µM

Could you now look at the following compound, please?
Please give the measured TGI for this compound: C#CC1/C(=C\C(=O)OC)CCCC1O (configuration not stated)
> 100 µM

* * *

Tested on: SK-MEL-2 melanoma
Assay: NCI tumour cell line growth inhibition, 48 h
value.type: TGI

Answered cases to consult:
compound	TGI
COc1ccc(CCN(C)C2CCC(C#N)(c3ccc(OC)c(OC)c3)CC2)cc1OC (stereo unspecified)	> 100 µM
N[C@@H](Cc1ccccc1)C(=O)N1CCC[C@@H]1P(=O)(Oc1ccccc1)Oc1ccccc1	> 100 µM
CCOS(C)(=O)=O	> 100 µM
Cn1c(SCc2ccc(F)cc2)nnc1C12CC3CC(CC(C3)C1)C2	> 100 µM
CC(NCCC(c1ccccc1)c1ccccc1)c1ccccc1 (stereo unspecified)	3.77 µM

Please give the measured TGI for this compound: O=c1oc2cc(O)ccc2c(O)c1C(c1ccccc1)c1c(O)c2ccc(O)cc2oc1=O
> 100 µM

Please give the measured TGI for this compound: CC(O)CNC(=O)C(C)Oc1ccc(OCC2CCCCC2)cc1 (stereo unspecified)
> 100 µM

Please give the measured TGI for this compound: N#Cc1nn(-c2cc(=O)[nH]c3ccc(Cl)cc23)c(N)c1C#N
> 100 µM

Please give the measured TGI for this compound: CC(C)SC(=S)Sc1c(Cl)c(Cl)nc(Cl)c1Cl
22.4 µM

Please give the measured TGI for this compound: Nc1ccc(N=Nc2c(S(=O)(=O)O)cc3ccccc3c2S(=O)(=O)O)cc1
> 100 µM

Please give the measured TGI for this compound: Cc1ccccc1C(=O)c1cc(O)ccc1O
> 100 µM

* * *

System: NCI-H460 lung
Assay: NCI tumour cell line growth inhibition, 48 h
value.type: TGI (µM)
Expressed in µM, but write only the number.

compound	value.units	TGI
CN(C)CCC(/C=C/c1ccccc1)=N\Nc1ccccc1	µM	10.7
CN(C)C1CCN(C(=O)c2ccc(NC(=O)Nc3ccc(-c4nc(N5CCOCC5)c5cccn5n4)cc3)cc2)CC1	µM	13.6

Hi! What's the reported TGI for COc1ccc(C(=O)Nc2ccc(O)c(=O)cc2)cc1 on NCI-H460 lung?
28.7

Hi! What's the reported TGI for CN(C)CC[C@H](CSc1ccccc1)Nc1ccc(S(=O)(=O)NC(=O)c2ccc(N3CCN(Cc4ccccc4-c4ccc(Cl)cc4)CC3)cc2)cc1[N+](=O)[O-] on NCI-H460 lung?
23.9

Hi! What's the reported TGI for Cc1ccc(C)c(NC(=O)c2cccc([N+](=O)[O-])c2O)c1 on NCI-H460 lung?
68.4

Hi! What's the reported TGI for O=C1N=C2Sc3ccc4ccccc4c3N2C1=O on NCI-H460 lung?
70.2

Hi! What's the reported TGI for Cc1nnc(Nc2ccc(NC(=O)Nc3ccc(Cl)cc3)cc2)c2ccccc12 on NCI-H460 lung?
11.7

Hi! What's the reported TGI for O=C(/C=C/c1ccccc1)Oc1ccc(C(=O)/C=C/c2ccccc2)cc1 on NCI-H460 lung?
18.8

Hi! What's the reported TGI for C=C1C(=O)CC2C1CC(=O)/C(C)=C/CCC(C)(O)C2O (stereo unspecified) on NCI-H460 lung?
45.5

Hi! What's the reported TGI for CC(=O)ON1CCCC(P(=O)(OCCSC(=O)C(C)(C)C)OCCSC(=O)C(C)(C)C)C1=O (stereo unspecified) on NCI-H460 lung?
19.9

Hi! What's the reported TGI for N=c1c2c(-c3ccccc3)c(-c3ccccc3)n(Cc3ccccc3)c2ncn1C1CCC(O)CC1 (stereo unspecified) on NCI-H460 lung?
1.5

Hi! What's the reported TGI for O=[N+]([O-])C(=C(Nc1ccccc1)Nc1ccccc1)C(Cl)=C(Cl)Cl on NCI-H460 lung?
33

* * *

Test system: MOLT-4 leukemia
Assay: NCI tumour cell line growth inhibition, 48 h; in the data active = GI50 below about 0.43 µM; inactive = the rest
Write down one outcome, taken from T = active, F = inactive

Record excerpt, results attached:
compound	label.class
CC(NCCC(c1ccccc1)c1ccccc1)c1ccccc1 (stereo unspecified)	F
NC1CCN(Cc2ccccc2)CC1	F
CCOC(=O)Nc1cc2c(c(N)n1)N=C(c1ccccc1)CO2	T
CCCC(=O)Nc1cn(COC)c(C(=O)N2C[C@@H]3C[C@]34C2=CC(=O)c2[nH]cc(C)c24)n1	F
COC(=O)[C@]12CC[C@@H](C)[C@H](C)[C@@H]1C1=CC[C@@H]3[C@@]4(C)C[C@@H](O)[C@H](O)[C@@](C)(CO)C4=CC[C@@]3(C)[C@]1(C)CC2	F

# next compound below
Just curious, what result did CCn1c(O)c(/C=N/NC(=O)C(C)c2ccc(CC(C)C)cc2)sc1=S (stereo unspecified) get here?
F

* * *

TGI values for the molecules below.
Tested on: DU-145 prostate
Assay: NCI tumour cell line growth inhibition, 48 h

molecule	target.or.system	value.type	result
CCOc1cc(/C=C2/C(C)=NN(c3cccc(Cl)c3)/C2=N/c2nc3ccccc3s2)ccc1O	DU-145 prostate	TGI	> 100 µM

Please give the measured TGI for this molecule: Cn1c(SCc2ccc(F)cc2)nnc1C12CC3CC(CC(C3)C1)C2
> 100 µM

Please give the measured TGI for this molecule: COc1ccc(-c2ccc(=O)oc2C#Cc2cc(OC)c(OC)c(OC)c2)cc1O
1.54 µM

Please give the measured TGI for this molecule: CC(C)SC(=S)Sc1c(Cl)c(Cl)nc(Cl)c1Cl
11.3 µM

Please give the measured TGI for this molecule: COc1ccc(N2C(=O)CC(=O)N(NC(=O)C(C)Oc3ccccc3C)C2=S)cc1 (stereo not given)
> 100 µM

Please give the measured TGI for this molecule: CNCCOC(=O)/C=C1\CC[C@H]2[C@@H]([C@@H](O)C(=O)[C@@H]3[C@]2(C)CC[C@H](O)[C@]3(C)C(=O)OC)[C@H]1C
0.371 µM

* * *

GI50 values for the molecules below.
System: DU-145 prostate
Experiment: NCI tumour cell line growth inhibition, 48 h

Answered cases to consult:
chem.smiles	result
Clc1cc2c(c(CSc3nc4ccccc4n4cccc34)c1)OCOC2	> 100 µM
NC(N)=N/N=C/c1c(Cl)cccc1Cl	23.1 µM

Hi! What's the reported GI50 for C[C@@H]1C[C@@H]([C@@H](CC2CC(=O)NC(=O)C2)OC(=O)CC(=O)c2ccccc2)C(=O)[C@@H](C)C1 on DU-145 prostate?
0.769 µM

Hi! What's the reported GI50 for CC(C)(/C=C(\C#N)C(=O)N1CCC[C@@H](n2nc(-c3ccc(Oc4ccccc4)cc3F)c3c(N)ncnc32)C1)N1CCN(C2COC2)CC1 on DU-145 prostate?
12.3 µM

Hi! What's the reported GI50 for N#Cc1nn(-c2cc(=O)[nH]c3ccc(Cl)cc23)c(N)c1C#N on DU-145 prostate?
> 100 µM

* * *

System: HL-60(TB) leukemia
Assay: NCI tumour cell line growth inhibition, 48 h
value.type: TGI (µM)
Expressed in µM, but write only the number.

compound	recorded.number
NC(N)=N/N=C/c1c(Cl)cccc1Cl	50.9

Could you now look at the following compound, please?
Please give the measured TGI for this compound: C=C1C(=O)CC2C1CC(=O)/C(C)=C/CCC(C)(O)C2O (centres undefined)
10.1
